Numbers sourced from patent US10899753B2.

Recorded IC50 by entry
Molecular target: BTK (Homo sapiens (Human))
Sequence (Q06187 whole entry): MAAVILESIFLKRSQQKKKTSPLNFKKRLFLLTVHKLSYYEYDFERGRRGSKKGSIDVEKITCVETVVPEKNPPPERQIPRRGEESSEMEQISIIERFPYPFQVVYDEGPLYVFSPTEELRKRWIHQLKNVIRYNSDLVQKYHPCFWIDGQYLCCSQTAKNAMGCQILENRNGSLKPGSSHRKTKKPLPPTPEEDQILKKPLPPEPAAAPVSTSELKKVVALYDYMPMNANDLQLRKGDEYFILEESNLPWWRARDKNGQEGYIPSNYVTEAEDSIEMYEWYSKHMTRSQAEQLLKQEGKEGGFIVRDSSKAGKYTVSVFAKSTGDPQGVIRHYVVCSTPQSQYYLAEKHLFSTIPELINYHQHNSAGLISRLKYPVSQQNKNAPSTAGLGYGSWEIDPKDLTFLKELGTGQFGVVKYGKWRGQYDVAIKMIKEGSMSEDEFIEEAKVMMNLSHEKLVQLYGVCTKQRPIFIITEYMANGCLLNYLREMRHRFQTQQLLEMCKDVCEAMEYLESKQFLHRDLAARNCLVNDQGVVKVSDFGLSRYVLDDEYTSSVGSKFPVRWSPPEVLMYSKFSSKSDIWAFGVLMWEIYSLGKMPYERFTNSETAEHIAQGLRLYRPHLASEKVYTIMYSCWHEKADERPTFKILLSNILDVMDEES
Experiment: In Vitro BTK Kinase Assay: BTK-POLYGAT-LS ASSAY
Format: biochemical
Conditions: fluorescein-labeled polyGAT peptide 100 nM, BTK enzyme 0.25 nM, 30 minutes, TRF
Description: In Vitro BTK Kinase Assay: BTK-POLYGAT-LS ASSAY The purpose of the BTK in vitro assay is to determine compound potency against BTK through the measurement of IC50. […] Time resolved fluorescence (TRF) on Molecular Devices M5 (332 nm excitation; 488 nm emission; 518 nm fluorescein emission) is measured.

State the recorded IC50 for this entry: `Cc1cc(-c2ncnc(Nc3ccn(C)n3)n2)ccc1CNC(=O)c1cc(C(C)(C)C)no1`
1 to 10 nM

Look at this compound and give its reported IC50. `Cn1ccc(Nc2ncnc(-c3ccc4c(c3F)CCCC[C@H]4NC(=O)c3noc(C(C)(C)C)n3)n2)n1`
< 1 nM

Continuing:
# input compound: `Cn1ccc(Nc2ncnc(-c3ccc(CNC(=O)c4nc(C(C)(C)C)no4)c(C4CC4)c3F)n2)n1` ; wanted: its IC50
< 1 nM

Need IC50 of `Cc1cc(-c2ncnc(Nc3cnn(C)c3)n2)ccc1CNC(=O)c1nc(C2(CF)CC2)no1` , thanks.
< 1 nM

Item `Cc1cc(-c2ncnc(Nc3cnn(C)c3)n2)c(F)cc1CNC(=O)c1cc(C(C)(C)C)on1` has what recorded IC50?
< 1 nM

// lookup IC50 for `Cc1c(CNC(=O)c2nc(C(C)(C)C)no2)ccc(-c2ncnc(Nc3ccn(C)n3)n2)c1F`
< 1 nM
